Every entry's value here was drawn from paper PMC10726367.

Target: RyR2 (Mus musculus, UniProt E9Q401)
Construct: expressed in transfected cells; host or cells: HEK-293 cells stably expressing R-CEPIA1er with doxycycline-inducible WT RyR2
Sequence (E9Q401 whole entry): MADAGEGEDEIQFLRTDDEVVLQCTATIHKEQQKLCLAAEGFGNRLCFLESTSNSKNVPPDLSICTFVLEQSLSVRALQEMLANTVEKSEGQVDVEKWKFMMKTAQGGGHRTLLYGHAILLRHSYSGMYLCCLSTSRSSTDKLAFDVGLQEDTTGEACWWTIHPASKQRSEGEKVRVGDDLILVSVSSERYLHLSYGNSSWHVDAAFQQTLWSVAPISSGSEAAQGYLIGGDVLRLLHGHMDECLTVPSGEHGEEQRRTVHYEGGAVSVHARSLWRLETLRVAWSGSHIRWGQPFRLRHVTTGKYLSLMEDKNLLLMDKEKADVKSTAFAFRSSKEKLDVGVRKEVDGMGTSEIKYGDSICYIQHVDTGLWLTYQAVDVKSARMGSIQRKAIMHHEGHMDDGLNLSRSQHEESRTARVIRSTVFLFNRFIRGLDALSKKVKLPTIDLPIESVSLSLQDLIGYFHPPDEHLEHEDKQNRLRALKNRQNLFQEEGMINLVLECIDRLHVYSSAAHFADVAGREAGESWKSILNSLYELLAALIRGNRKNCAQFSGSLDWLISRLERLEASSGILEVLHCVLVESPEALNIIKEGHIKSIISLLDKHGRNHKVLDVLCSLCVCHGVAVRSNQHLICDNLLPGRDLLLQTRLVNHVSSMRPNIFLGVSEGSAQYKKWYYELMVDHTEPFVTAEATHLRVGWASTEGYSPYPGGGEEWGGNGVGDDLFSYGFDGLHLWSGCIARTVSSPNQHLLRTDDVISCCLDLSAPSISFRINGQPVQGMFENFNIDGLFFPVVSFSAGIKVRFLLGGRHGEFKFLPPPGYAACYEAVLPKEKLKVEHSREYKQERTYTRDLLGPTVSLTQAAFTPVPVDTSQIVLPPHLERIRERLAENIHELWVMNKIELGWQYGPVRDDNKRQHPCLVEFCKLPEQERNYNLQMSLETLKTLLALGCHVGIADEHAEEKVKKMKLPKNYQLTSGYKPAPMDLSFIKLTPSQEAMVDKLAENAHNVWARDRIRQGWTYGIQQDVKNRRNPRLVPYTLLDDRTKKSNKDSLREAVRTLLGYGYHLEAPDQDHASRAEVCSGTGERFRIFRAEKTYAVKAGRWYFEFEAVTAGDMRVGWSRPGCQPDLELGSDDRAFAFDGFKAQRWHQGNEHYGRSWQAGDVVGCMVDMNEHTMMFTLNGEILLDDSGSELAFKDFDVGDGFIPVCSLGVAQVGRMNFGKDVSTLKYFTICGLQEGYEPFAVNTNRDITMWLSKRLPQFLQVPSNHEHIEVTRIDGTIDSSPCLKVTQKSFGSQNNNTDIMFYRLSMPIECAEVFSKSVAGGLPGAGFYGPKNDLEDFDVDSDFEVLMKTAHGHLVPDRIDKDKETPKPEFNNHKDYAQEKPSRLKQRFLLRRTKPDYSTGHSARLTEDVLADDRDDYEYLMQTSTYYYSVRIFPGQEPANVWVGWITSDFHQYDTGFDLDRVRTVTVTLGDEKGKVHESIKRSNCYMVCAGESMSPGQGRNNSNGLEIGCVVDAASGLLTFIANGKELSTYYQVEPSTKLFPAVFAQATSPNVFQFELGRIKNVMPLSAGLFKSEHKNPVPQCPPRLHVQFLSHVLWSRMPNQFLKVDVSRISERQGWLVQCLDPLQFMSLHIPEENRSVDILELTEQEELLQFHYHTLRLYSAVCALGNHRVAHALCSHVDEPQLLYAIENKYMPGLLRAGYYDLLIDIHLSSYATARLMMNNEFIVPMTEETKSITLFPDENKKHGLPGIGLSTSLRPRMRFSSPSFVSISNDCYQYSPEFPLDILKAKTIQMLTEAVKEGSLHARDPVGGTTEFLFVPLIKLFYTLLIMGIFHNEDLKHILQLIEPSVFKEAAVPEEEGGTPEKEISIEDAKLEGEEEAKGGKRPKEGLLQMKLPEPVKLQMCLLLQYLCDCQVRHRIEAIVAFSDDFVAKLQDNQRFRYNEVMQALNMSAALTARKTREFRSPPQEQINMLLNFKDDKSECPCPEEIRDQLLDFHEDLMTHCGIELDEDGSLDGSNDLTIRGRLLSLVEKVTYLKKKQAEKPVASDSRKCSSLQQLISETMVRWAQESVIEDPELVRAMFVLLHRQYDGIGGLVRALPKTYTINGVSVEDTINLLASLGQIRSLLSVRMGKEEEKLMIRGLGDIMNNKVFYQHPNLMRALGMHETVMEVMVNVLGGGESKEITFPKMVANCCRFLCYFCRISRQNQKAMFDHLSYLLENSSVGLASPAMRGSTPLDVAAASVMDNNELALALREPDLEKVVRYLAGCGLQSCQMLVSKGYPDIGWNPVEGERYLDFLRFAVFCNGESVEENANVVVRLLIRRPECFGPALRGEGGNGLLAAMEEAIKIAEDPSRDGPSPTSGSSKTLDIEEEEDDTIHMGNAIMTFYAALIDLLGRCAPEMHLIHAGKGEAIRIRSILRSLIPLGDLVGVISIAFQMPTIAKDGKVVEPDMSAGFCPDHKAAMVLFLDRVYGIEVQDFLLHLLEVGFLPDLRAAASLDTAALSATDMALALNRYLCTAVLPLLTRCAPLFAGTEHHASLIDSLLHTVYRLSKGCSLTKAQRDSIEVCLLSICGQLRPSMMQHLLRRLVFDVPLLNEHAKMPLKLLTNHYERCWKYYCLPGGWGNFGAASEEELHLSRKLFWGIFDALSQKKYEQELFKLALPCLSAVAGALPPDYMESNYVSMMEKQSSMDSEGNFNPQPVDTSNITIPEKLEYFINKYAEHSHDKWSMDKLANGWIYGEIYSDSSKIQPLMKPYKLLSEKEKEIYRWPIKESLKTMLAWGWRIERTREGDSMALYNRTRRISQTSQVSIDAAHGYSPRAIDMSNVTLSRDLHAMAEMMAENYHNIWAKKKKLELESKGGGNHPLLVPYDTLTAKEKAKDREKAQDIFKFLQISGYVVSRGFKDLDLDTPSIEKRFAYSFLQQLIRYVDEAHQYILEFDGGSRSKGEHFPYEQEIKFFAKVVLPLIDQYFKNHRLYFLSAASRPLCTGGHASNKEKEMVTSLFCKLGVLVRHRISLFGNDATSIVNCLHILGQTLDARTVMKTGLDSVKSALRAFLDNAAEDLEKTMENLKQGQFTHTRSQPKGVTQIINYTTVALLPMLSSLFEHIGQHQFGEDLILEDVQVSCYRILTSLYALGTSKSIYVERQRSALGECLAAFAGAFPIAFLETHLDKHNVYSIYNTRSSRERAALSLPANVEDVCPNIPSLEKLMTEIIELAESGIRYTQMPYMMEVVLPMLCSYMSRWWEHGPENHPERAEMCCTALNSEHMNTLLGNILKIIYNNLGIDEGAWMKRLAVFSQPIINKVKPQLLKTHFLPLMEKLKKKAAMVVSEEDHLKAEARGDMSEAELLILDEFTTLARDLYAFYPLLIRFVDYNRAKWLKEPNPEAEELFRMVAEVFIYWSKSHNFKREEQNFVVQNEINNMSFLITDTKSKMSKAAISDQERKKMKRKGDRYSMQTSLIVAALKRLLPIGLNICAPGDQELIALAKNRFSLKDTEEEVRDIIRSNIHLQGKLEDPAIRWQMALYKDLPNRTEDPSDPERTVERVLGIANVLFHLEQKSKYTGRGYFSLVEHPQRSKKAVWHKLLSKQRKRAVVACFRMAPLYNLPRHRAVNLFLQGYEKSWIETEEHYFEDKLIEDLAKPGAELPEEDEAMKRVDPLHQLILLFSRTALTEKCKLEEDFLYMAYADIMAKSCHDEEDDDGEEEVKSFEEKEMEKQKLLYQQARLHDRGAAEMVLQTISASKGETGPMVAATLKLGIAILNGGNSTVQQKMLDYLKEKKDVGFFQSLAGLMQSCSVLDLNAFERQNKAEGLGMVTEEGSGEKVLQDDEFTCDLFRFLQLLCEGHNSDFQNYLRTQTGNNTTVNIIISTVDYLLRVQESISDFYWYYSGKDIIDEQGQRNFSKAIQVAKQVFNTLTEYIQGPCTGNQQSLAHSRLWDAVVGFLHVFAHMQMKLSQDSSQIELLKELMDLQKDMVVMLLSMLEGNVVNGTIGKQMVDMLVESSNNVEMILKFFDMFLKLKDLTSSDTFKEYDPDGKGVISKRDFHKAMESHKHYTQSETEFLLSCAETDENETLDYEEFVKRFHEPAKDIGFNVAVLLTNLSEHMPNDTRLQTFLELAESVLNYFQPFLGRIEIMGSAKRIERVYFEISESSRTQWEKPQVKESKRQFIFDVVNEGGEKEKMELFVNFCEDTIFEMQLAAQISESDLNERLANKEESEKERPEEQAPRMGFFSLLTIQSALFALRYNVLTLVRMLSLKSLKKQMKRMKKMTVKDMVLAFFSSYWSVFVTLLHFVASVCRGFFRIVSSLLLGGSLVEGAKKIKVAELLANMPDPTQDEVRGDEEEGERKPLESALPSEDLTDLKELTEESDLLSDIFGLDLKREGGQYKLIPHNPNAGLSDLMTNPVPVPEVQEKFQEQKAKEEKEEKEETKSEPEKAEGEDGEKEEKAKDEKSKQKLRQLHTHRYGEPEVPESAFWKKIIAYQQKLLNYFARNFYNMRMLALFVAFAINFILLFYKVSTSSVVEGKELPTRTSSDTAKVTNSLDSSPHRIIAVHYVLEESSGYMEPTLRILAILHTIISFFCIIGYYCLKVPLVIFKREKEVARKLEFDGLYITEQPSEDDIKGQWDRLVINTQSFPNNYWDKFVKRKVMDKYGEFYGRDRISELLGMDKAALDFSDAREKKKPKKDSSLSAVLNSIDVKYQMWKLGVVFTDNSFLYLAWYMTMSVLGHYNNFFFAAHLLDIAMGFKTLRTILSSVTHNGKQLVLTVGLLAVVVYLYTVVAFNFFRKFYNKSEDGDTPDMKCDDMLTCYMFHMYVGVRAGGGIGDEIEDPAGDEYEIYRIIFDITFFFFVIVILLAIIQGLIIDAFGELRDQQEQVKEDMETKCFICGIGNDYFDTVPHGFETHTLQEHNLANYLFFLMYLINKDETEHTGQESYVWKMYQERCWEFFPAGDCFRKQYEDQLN
Experiment: Time-lapse [Ca2+]ER assay (RyR2 R-CEPIA1er assay) in HEK-293 cells with inducible WT RyR2
Assay type: cell-based
Conditions: 25 μM (S107 1 mM per Figure 2), HEK-293 RyR2 R-CEPIA1er cells
readout-type: RyR2 effect class

Some solved entries appear below for comparison.
INSERT INTO assay_data (compound, meas_value) VALUES
  ('COc1ccc2c(c1)CN(CCCCNCCCCC1(O)CC1)CCS2 [11a]', '++'),
  ('COc1ccc2c(c1)CN(CCCCN(CCCCC1(O)CC1)CCCCC1(O)CC1)CCS2 [12a]', '+++'),
  ('COc1ccc2c(c1)CN(Cc1ccc(C(=O)O)cc1)CCS2 [ARM210, reference compound]', '++'),
  ('COc1ccc(SCCCN(CCCCC2(O)CC2)CCCCC2(O)CC2)cc1 [12c]', '+');

Readout RyR2 effect class for COc1ccc(SCCCNCCCCC2(O)CC2)cc1 [11c] , test system RyR2 (Mus musculus, UniProt E9Q401), was ++

RyR2 (Mus musculus, UniProt E9Q401) assay, compound COc1ccc2c(c1)CN(C(=O)C(=O)O)CCS2 [S36, reference compound] , recorded RyR2 effect class = +++

Known value: RyR2 (Mus musculus, UniProt E9Q401) RyR2 effect class of the compound COc1ccc(OCCCNCCCCC2(O)CC2)cc1 [11b] equals +++

====

Assay: CytoTox-Glo Cytotoxicity Assay
Format: cell-based
Details: mouse; HL-1 cells, 100 μM solutions, 24 h incubation
readout-type: viability at 24 h, 100 μM (%)
Provide the reading as a plain figure in %.

// solved cases for viability at 24 h, 100 μM follow
INSERT INTO measurements (compound, readout_type, scale_unit, meas_value) VALUES
  ('COc1ccc2c(c1)CN(CCCCNCCCCC1(O)CC1)CCS2 [11a]', 'viability at 24 h, 100 μM', '%', 84),
  ('COc1ccc(SCCCNCCCCC2(O)CC2)cc1 [11c]', 'viability at 24 h, 100 μM', '%', 73),
  ('COc1ccc2c(c1)CN(C)CCS2 [S107, reference compound]', 'viability at 24 h, 100 μM', '%', 98),
  ('COc1ccc2c(c1)CN(C(=O)C(=O)O)CCS2 [S36, reference compound]', 'viability at 24 h, 100 μM', '%', 94),
  ('COc1ccc2c(c1)CN(Cc1ccc(C(=O)O)cc1)CCS2 [ARM210, reference compound]', 'viability at 24 h, 100 μM', '%', 90);

viability at 24 h, 100 μM measured on COc1ccc2c(c1)CN(CCCCN(CCCCC1(O)CC1)CCCCC1(O)CC1)CCS2 [12a] = 80

The compound listed as COc1ccc(OCCCNCCCCC2(O)CC2)cc1 [11b] has a reported viability at 24 h, 100 μM of 100

Lab note: COc1ccc2c(c1)CN(CCCCC1(O)CC1)CCS2 [11d] gave viability at 24 h, 100 μM of 95

viability at 24 h, 100 μM recorded for this compound, COc1ccc(SCCCN(CCCCC2(O)CC2)CCCCC2(O)CC2)cc1 [12c] , is 90
